test system: NCI-H460 lung; test: NCI tumour cell line growth inhibition, 48 h

>  <COMPOUND>
COc1ccc2ccccc2c1C1=NC(C)(C)CO1

>  <TGI>
> 100 µM

$$$$
>  <COMPOUND>
Cc1ccc(N=N/C(=N/NC(=O)c2ccccc2)c2ccc(N(CCC#N)CCC#N)cc2C)cc1

>  <TGI>
> 100 µM

$$$$
>  <COMPOUND>
O=C(NCCC1CNc2ccccc21)OCc1ccccc1 (stereo not given)

>  <TGI>
> 100 µM

$$$$
>  <COMPOUND>
C=CCNC(=O)C(C)C1CCC2(C)C=CC(=O)C(C)=C2C1O (stereo not given)

>  <TGI>
> 100 µM

$$$$
>  <COMPOUND>
N#Cc1ccc(Sc2nc3ccccc3[nH]2)cc1

>  <TGI>
> 100 µM

$$$$
>  <COMPOUND>
N#Cc1c(NC(=O)C(F)(F)F)sc2c3c(=O)c4ccccc4c(=O)c=3oc3ccccc3c12

>  <TGI>
36.5 µM

$$$$
>  <COMPOUND>
CCN(CC)CCNc1ccc([N+](=O)[O-])c2nc3ccc(OC)cc3c(NCCN(CC)CC)c12

>  <TGI>
1.41 µM

$$$$
>  <COMPOUND>
C=CCN(CC=C)C(=O)c1cc(C)nc2c1c(=O)n(-c1ccccc1)c(=O)n2CCCN1CCN(c2ccccc2OC)CC1

>  <TGI>
> 50 µM

$$$$
>  <COMPOUND>
O=C(CSCC(=O)N/N=C/c1cccc(O)c1)N/N=C/c1cccc(O)c1

>  <TGI>
> 100 µM

$$$$
>  <COMPOUND>
CC(C)(C)OC(=O)N(CCCCNC(=O)C(F)(F)F)CCCNC(=O)C(F)(F)F

>  <TGI>
> 100 µM

$$$$
